Value source: patent US10556943B2

- measuredOn: purified HLA DRB1*0701 (Homo sapiens, UniProt P01903+P01911, A100R/A102G/A103Q/D57E/D86V/E43K/F76Y/K127E/L162R/M171V/P40G/Q125H/Q99D/R33Q/R42Y/R54Q/S133A/S66F/T210M/V115G/Y107V/Y59L/Y89S)
- Construct: MHC molecules utilized were purified from EBV transformed homozygous cell lines or single MHC allele transfected 721.221, C1R, or fibroblast lines; made in house; host or cells: EBV transformed homozygous cell lines or single MHC allele transfected 721.221, C1R, or fibroblast lines
- measurementDescription: HLA-DR radioligand binding inhibition assay, DRB1*0701
Ends that are not written are not given here.
quantityName: pIC50
One number for each entry, as −log10 of the molar value.

Query string: So what's the measured pIC50 for this one? GDPLNNTTPVTGASP [Peptide 9019.0036]
Result string: 4.88
